Assay: Tissue distribution
Format: in vivo, rats
Details: male, Wistar, rat; 5 mg/kg iv, Heart
result type: Tmax (min)
Only the number, expressed in min, is required.

In plain terms, CCC(CO)NCCOc1c(C)cccc1Cl (stereo not shown) [KM-408] has a documented Tmax of 15

* * *

Molecular target: hNav1.1 sodium channel (Homo sapiens)
Construct: host or cells: CHO cells
Assay: Nav channel electrophysiology (IonWorks Quattro)
Assay type: cell-based
Conditions: 10 Hz
result type: pIC50
Quick note: pIC50 values are minus log10 of concentrations in mol/L.

Let me check: CCC(CO)NCCOc1c(C)cccc1Cl (stereo not shown) , system hNav1.1 sodium channel (Homo sapiens), measured pIC50 is 4.76

* * *

Target: M5 (Homo sapiens)
Sequence (P08912 whole entry): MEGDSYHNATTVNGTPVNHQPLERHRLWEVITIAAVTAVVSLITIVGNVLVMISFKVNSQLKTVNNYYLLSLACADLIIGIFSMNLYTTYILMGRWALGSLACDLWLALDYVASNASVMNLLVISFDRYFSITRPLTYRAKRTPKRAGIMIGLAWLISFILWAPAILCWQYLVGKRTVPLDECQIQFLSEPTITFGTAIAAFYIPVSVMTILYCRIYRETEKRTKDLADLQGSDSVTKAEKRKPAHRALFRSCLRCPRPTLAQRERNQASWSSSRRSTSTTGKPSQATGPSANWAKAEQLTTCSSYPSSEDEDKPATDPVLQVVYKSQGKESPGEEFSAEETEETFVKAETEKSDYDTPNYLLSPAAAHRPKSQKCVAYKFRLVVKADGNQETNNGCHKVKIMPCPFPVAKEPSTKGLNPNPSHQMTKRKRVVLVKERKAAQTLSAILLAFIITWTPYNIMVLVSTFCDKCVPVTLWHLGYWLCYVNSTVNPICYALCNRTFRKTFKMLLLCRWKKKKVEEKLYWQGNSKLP
result type: Ki (µM)
Only the number, expressed in µM, is required.

Let me check: CCC(CO)NCCOc1c(C)cccc1Cl (stereo not shown) [KM-408] , system M5 (Homo sapiens), measured Ki is 18

* * *

Assay: Pharmacokinetics in plasma
Type: in vivo, rats
Conditions: male, Wistar, rat, plasma; rats, iv 10 mg/kg
result type: AUC(0-t) (ng·h/mL)
Only the number, expressed in ng·h/mL, is required.

In plain terms, CCC(CO)NCCOc1c(C)cccc1Cl (stereo not shown) has a documented AUC(0-t) of 2720

* * *

Molecular target: hNav1.8/beta3 sodium channel (Homo sapiens)
Construct: host or cells: CHO cells
Sequence (Q9Y5Y9 whole entry): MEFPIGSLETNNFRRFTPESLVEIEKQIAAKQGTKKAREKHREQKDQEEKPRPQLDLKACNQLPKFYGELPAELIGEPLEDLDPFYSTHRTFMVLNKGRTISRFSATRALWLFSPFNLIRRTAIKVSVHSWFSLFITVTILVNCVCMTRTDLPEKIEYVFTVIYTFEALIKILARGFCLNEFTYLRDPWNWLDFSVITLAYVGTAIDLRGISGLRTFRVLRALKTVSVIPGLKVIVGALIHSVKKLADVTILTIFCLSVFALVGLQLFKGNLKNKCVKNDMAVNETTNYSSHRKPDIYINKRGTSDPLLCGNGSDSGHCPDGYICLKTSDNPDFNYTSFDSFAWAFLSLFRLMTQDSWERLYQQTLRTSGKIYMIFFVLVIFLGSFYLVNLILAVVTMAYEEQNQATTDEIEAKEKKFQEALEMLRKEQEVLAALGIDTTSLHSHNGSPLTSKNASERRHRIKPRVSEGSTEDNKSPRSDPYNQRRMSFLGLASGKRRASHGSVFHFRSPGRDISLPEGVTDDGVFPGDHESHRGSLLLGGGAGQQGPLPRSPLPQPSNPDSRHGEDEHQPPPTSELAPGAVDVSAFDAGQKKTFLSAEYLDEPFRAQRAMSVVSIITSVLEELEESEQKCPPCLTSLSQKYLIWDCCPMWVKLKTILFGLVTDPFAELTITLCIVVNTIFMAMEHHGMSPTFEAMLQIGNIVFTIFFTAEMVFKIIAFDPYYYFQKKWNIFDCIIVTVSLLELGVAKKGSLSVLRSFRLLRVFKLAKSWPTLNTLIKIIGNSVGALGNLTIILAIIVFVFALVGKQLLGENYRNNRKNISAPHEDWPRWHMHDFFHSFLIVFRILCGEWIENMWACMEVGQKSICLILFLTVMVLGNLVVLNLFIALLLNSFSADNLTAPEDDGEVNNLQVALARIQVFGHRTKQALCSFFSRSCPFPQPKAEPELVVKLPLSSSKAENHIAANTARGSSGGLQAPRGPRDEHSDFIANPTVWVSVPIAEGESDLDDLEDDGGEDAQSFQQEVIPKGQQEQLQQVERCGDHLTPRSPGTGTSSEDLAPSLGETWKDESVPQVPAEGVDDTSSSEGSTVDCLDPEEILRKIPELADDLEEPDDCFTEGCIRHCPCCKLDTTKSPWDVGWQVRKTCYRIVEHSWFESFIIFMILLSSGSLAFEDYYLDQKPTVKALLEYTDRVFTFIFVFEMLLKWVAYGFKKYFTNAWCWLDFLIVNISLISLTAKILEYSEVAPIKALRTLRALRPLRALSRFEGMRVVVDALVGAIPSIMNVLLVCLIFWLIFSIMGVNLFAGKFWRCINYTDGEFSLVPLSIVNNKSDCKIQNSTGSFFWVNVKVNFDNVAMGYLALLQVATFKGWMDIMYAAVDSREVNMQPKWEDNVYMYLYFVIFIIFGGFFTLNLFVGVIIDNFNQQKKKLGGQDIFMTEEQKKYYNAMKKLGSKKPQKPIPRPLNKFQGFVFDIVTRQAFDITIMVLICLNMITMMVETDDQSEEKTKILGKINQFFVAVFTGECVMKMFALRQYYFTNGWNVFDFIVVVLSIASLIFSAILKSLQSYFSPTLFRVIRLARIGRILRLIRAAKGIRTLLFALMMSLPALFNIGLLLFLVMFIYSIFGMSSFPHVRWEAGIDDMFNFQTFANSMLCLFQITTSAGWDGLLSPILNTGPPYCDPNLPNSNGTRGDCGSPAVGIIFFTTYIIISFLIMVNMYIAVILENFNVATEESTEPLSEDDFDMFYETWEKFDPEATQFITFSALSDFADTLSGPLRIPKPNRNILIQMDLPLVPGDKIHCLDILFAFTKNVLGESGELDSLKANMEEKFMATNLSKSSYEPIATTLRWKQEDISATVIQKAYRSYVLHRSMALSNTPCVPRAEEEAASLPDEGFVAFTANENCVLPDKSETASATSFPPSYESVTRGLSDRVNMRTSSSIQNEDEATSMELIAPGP
Sequence (Q9NY72 25-215 partner limits assumed): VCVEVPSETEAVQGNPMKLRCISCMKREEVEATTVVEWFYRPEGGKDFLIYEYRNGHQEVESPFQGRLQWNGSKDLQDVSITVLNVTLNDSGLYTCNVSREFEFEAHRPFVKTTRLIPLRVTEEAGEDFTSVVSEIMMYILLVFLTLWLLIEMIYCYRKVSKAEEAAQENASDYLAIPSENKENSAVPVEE
Assay: Nav channel electrophysiology (IonWorks Quattro)
Assay type: cell-based
Conditions: Inactivated state
result type: IC50

In plain terms, CCC(CO)NCCOc1c(C)cccc1Cl (stereo not shown) has a documented IC50 of < 10 µM

* * *

Test: Tissue distribution
Type: in vivo, rats
Conditions: male, Wistar, rat; 5 mg/kg iv, Lungs; read-out: λz (converted)
result type: k el (s⁻¹)
Only the number, expressed in s⁻¹, is required.

In plain terms, CCC(CO)NCCOc1c(C)cccc1Cl (stereo not shown) [KM-408] has a documented k el of 0.000383

* * *

Experiment: Pharmacokinetics in plasma
Type: in vivo, rats
Conditions: male, Wistar, rat, plasma; rats, po 50 mg/kg
result type: MRT (h)
Only the number, expressed in h, is required.

In plain terms, CCC(CO)NCCOc1c(C)cccc1Cl (stereo not shown) has a documented MRT of 1.32

* * *

Assay: Pharmacokinetics in plasma
Format: in vivo, rats
Details: male, Wistar, rat, plasma; rats, po 50 mg/kg; read-out: λz (converted)
Protocol: Pharmacokinetic study design. Male Wistar rats (250–300 g) bred in-house from progenitors obtained from Charles River Laboratories (Sulzfed, Germany) were used in this study. […] Pharmacokinetic data analysis. Plasma and tissue concentration versus time profiles were analyzed by the non-compartmental approach in Phoenix WinNonlin v. […] The terminal slope (λz) was estimated by linear regression and the terminal half-life (t0.5λz) was calculated as ln2/λz. […]
result type: k el
Returns: string containing the numeric result and its unit.

In plain terms, CCC(CO)NCCOc1c(C)cccc1Cl (stereo not shown) has a documented k el of 0.000383 s⁻¹

* * *

Test: Tissue distribution;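 note: organ homogenates in PBS analysed by HPLC after FMOC-Cl derivatization, non-compartmental analysis, Kp as tissue over plasma AUC, half-life taken as ln2 divided by λz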
Assay type: in vivo, rats
Details: male, Wistar, rat; 5 mg/kg iv, Liver
result type: MRT (h)
Only the number, expressed in h, is required.

In plain terms, CCC(CO)NCCOc1c(C)cccc1Cl (stereo not shown) [KM-408] has a documented MRT of 1.88
